- TARGET OF ASSAY: T1, recombinant human αvβ1 integrin extracellular domains (human, UniProt P06756 1-992; P05556 1-728, Secreted glycoprotein heterodimer. It is biotinylated on the omitted Avitag, and an interchain disulfide sits in the omitted coiled-coils.)
- T1 construct: Soluble heterodimer co-expressed in Expi293 cells; also called hαvβ1; not shown: Alpha chain: acidic coiled-coil with cysteine and GG-Avitag; Beta chain: basic coiled-coil with cysteine and GG-Avitag
- PROTOCOL DESCRIPTION: ForteBio Octet Red (BLI)
RECORDED METRIC: Kd (nM)
Write down the numeric answer in nM and omit the unit.

Inquiry: For the binder Ab-29 (antibody, V domains shown) VH: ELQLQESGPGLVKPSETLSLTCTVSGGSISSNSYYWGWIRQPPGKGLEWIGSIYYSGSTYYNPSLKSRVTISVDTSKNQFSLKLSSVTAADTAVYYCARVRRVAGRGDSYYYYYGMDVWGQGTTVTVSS VL: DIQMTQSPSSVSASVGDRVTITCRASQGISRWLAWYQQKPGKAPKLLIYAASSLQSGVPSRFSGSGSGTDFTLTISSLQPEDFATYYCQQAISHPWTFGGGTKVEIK , give its reported Kd.
Reply text: 2.7
